Origin of values: PubChem BioAssay (NCI)

Item-by-item account of TGI
test system: NCI-H460 lung; assay: NCI tumour cell line growth inhibition, 48 h

Example entries begin here.
{"MOLECULE": "NC(=Nc1ccc(N)cc1)C(N)=Nc1ccc(N)cc1", "SYSTEM_NAME": "NCI-H460 lung", "TGI": "> 100 µM"}
{"MOLECULE": "CN1C(=O)CC2CCC(=O)N2c2cccnc21 (centres undefined)", "SYSTEM_NAME": "NCI-H460 lung", "TGI": "> 100 µM"}
{"MOLECULE": "O=C(Nc1ccccc1O)c1ccc(NS(=O)(=O)c2cccc3cccnc23)cc1", "SYSTEM_NAME": "NCI-H460 lung", "TGI": "7.28 µM"}
{"MOLECULE": "O=C1CCCCC/C1=C\\c1ccccc1", "SYSTEM_NAME": "NCI-H460 lung", "TGI": "> 100 µM"}
{"MOLECULE": "S=C=NCCc1ccccc1", "SYSTEM_NAME": "NCI-H460 lung", "TGI": "0.765 µM"}
{"MOLECULE": "CC(C)/C(=N\\[N+](C)(C)C)c1ccccc1", "SYSTEM_NAME": "NCI-H460 lung", "TGI": "> 100 µM"}

Inquiry: Form field: TGI recorded for N#CN1CC[C@H](C(=O)Nc2cc3cc(C(N)=O)ccc3cn2)C1 with NCI-H460 lung (enter value)
Reply text: > 44 µM

Inquiry: Form field: TGI recorded for C[C@@H]1COCCN1c1cc(C2([S@@](C)(=N)=O)CC2)nc(-c2ccnc3[nH]ccc23)n1 with NCI-H460 lung (enter value)
Reply text: > 69.8 µM

Inquiry: Form field: TGI recorded for Cc1ccc(-c2nc([P+](c3ccccc3)(c3ccccc3)c3ccccc3)c(Nc3ccccc3)o2)cc1 with NCI-H460 lung (enter value)
Reply text: 1.8 µM

Inquiry: Form field: TGI recorded for O=C(NCCNc1nccc(-c2c(-c3cccc(O)c3)nc3sccn23)n1)c1ccccc1 with NCI-H460 lung (enter value)
Reply text: 27.5 µM

Inquiry: Form field: TGI recorded for CCOC(=O)c1cnn2c3ccccc3n(S(=O)(=O)c3ccc(OC)cc3)c12 with NCI-H460 lung (enter value)
Reply text: > 100 µM

Inquiry: Form field: TGI recorded for CSCCCNC(=O)c1csc(-c2csc(CCNC(=O)CNC(=O)CNC(=O)OC(C)(C)C)n2)n1 with NCI-H460 lung (enter value)
Reply text: > 100 µM

Inquiry: Form field: TGI recorded for CN(C)c1cccc2c1C(=O)C=CC21CCc2ccc(N(C)C)c3c(N(C)C)ccc1c23 (centres undefined) with NCI-H460 lung (enter value)
Reply text: 28.7 µM

Inquiry: Form field: TGI recorded for CN(C)c1ccc(C(c2ccc(Cl)cc2)c2ccc(N(C)C)cc2)cc1 with NCI-H460 lung (enter value)
Reply text: > 100 µM

---

system: MDA-MB-435; assay: NCI tumour cell line growth inhibition, 48 h
METRIC_NAME: TGI

{"COMPOUND": "N#Cc1c(N)nc(NCc2ccccc2)c(C#N)c1-c1ccc(Cl)cc1Cl", "TGI": "> 100 µM"}
{"COMPOUND": "O=[N+]([O-])/C(C(Cl)=C(Cl)Cl)=C(\\N1CCCCC1)n1nnc2ccccc21", "TGI": "> 100 µM"}
{"COMPOUND": "CC1=C(C)C2(O)C(=C(C)C1=O)/C(=C(/O)c1ccccc1)c1nc3ccccc3n12 (stereo unspecified)", "TGI": "35.1 µM"}
{"COMPOUND": "CCOC(=O)c1ccc2c(c1)[n+](=O)c(C(C)=O)c(C(F)(F)F)n2[O-]", "TGI": "3.21 µM"}

Inquiry: Given the compound C=CCCCCOC1C=CC(O)C(CO)O1 (stereo unspecified) , what is its reported TGI?
Reply text: > 100 µM

Inquiry: Given the compound O=C(NNS(=O)(=O)c1ccccc1)c1cccnc1 , what is its reported TGI?
Reply text: > 100 µM
